Exercise: state measured Kd for each of the binders provided.
Target Or Test System: T1, EsCas13d, nuclease-dead (Eubacterium siraeum, UniProt B0MS50, R295A;H300A;R849A;H854A)
T1 sequence: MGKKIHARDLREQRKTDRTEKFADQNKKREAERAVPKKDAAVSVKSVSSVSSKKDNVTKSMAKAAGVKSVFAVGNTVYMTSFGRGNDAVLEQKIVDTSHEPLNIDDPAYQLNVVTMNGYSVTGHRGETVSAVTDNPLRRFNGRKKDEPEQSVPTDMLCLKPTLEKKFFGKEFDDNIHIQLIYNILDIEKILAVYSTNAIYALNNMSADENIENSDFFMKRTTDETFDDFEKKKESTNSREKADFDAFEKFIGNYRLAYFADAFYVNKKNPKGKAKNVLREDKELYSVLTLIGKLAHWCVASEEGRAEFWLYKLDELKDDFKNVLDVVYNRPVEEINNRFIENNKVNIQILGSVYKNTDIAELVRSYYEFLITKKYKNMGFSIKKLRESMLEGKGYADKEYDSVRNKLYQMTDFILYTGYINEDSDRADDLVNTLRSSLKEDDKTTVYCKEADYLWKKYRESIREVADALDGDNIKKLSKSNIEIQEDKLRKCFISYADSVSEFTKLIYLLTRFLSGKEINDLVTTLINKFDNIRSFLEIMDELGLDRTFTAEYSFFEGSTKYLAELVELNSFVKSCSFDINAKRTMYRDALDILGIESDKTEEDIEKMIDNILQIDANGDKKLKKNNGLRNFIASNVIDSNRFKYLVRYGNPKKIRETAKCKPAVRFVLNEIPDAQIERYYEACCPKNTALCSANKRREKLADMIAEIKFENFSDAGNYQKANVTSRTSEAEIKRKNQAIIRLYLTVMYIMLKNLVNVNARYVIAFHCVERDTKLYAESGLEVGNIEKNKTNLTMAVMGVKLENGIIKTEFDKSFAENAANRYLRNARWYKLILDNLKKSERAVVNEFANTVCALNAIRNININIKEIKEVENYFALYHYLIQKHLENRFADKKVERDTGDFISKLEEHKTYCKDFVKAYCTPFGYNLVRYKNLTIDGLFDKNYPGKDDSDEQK
Protocol Notes: crRNA (strand 1, pre-loaded); Mg2+; 40 mM Tris-HCl pH 7.5, 150 mM NaCl, 6 mM MgCl2, 1 mM DTT, 0.1% Tween-20, 0.2 mg/ml BSA; 25 C; 10 min per concentration, then washed
Measurement Parameters: tags: His6-TwinStrep-SUMO cleaved; N-terminal SNAP kept (SNAP-Surface 488); label: 3' end held by stalled T7 RNA polymerase

// worked examples, Kd included
binder="target 2 MT 5'PFS UUU 3'PFS UCA (mixed) RNA 1: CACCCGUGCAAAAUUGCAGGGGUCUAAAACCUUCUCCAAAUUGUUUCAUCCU RNA 2: GGGAAUGGAUCCACAUCUACGAAUUCUUUAGGAUGAAACAAUUUGGAGAAGUCAAGAUCGGAAGAGCACACGU" measurement_type=Kd reading="8.7 nM"
binder="target 1 C4G,A9C (mixed) RNA 1: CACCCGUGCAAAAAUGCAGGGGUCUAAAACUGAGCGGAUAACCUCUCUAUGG RNA 2: GGGAAUGGAUCCACAUCUACGAAUUCGUACCAUAGAGAGGUUCUCCGGUCACCGAGAUCGGAAGAGCACACGU" measurement_type=Kd reading="7.2 nM"
binder="target 1 insU 3' of 7,insG 3' of 6 (mixed) RNA 1: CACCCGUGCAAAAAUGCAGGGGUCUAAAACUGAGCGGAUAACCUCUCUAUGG RNA 2: GGGAAUGGAUCCACAUCUACGAAUUCGUACCAUAGAGAGGUUAUCUCGGCUCACCGAGAUCGGAAGAGCACACGU" measurement_type=Kd reading="16.7 nM"

Alright, here's another binder for you.
Recorded result, target 1 insU 3' of 21,insA 3' of 4 (mixed) RNA 1: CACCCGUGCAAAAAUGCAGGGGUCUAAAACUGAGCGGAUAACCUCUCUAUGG RNA 2: GGGAAUGGAUCCACAUCUACGAAUUCGUACCUAUAGAGAGGUUAUCCGCAUCACCGAGAUCGGAAGAGCACACGU , Kd: 15.6 nM
